- assay-system: SARS-CoV2 RBD antigen (Genscript) (SARS-CoV2, UniProt P0DTC2 319-541)
- assay-summary: ELISA on RBD antigen, human IgG at 1 µg/mL, O.D. 450 nm
measured-quantity: binding result

| binder | measured-quantity | result |
| --- | --- | --- |
| SKAI-DS1 (antibody, V domains shown, also called SKAI-DS1 human IgG antibody) VH: EVQLLESGGGLVQTGGSLRLSCAASGFTFSDYAMSWVRQAPGKGLEWVSWIYSNDGNKYYADSVKGRFTISRDNSKNTLYLQMNSLRAEDTAVYYCARFPVPSWRNTWSSYDAMDVWGQGTLVTV VL: QSVLTQPPSASGTPGRRVTISCTGSSSNIGSNYVSWYQQLPGTAPKLLIYSDSNRPSGVPDRFSGSKSGTSASLAISGLRSEDEADYYCGTWDASLSGYVFGGGTKLTVL | binding result | binds |
| SKAI-DS66 (antibody, V domains shown, also called SKAI-DS66 human IgG antibody) VH: EVQLLESGGGLVQPGGSLRLSCAASGFTFSDYAMSWVRQAPGKGLEWVSAIYPGGGSTYYADSVKGRFTISRDNSKNTLYLQMNSLRAEDTAVYYCARNLFGFDYWGQGTLVTV VL: QSVLTQPPSASGTPGQRVTISCTGSSSNIGSNAVYWYQQLPGTAPKLLIYDDSNRPSGVPDRFSGSKSGTSASLAISGLRSEDEADYYCGSWDDSLSAYVFGGGTKLTVL | binding result | binds |
| SKAI-DS64 (antibody, V domains shown, also called SKAI-DS64 human IgG antibody) VH: EVQLLESGGGLVQPGGSLRLSCAASGFTFSDYSMSWVRQAPGKGLEWVSGIYHSDGSKYYADSVKGRFTISRDNSKNTLYLQMNSLRAEDTAVYYCARFDPVFDYWGQGTLVTV VL: QSVLTQPPSASGTPGQRVTISCSGSSSNIGSNAVSWYQQLPGTAPKLLIYDNNHRPSGVPDRFSGSKSGTSASLAISGLRSEDEADYYCGSWDDSLNAYVFGGGTKLTVL | binding result | binds |
